# measured.on: CYP450 2C9 (Homo sapiens)
# Sequence (P11712 whole entry): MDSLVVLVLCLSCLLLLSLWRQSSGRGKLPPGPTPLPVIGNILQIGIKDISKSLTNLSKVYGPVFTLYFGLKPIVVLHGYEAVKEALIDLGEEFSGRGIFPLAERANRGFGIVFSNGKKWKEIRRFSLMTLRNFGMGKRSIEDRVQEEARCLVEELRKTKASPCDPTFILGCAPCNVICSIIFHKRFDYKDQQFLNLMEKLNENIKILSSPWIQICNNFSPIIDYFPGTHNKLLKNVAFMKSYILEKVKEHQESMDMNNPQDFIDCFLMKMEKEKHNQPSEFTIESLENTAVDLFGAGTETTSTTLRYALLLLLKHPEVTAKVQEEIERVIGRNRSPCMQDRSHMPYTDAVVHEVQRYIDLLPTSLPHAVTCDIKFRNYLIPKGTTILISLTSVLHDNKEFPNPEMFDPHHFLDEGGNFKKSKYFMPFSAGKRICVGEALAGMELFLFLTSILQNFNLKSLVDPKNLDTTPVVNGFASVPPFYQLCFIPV
parameter: pIC50
Give bare numbers, as −log10 of the molar value.

Asked: Look up pIC50: Cc1[nH]c2c(c(=O)c1-c1ccc(Oc3ccc(OC(F)(F)F)cc3)cc1)CCCC2
Given back: 5.40

---

# procedure.details: Metabolic stability in mouse liver microsomes
# experimental.conditions: mouse, liver microsomes, T1/2 (M), predicted half-life in mouse liver microsomes; Figure 1A; min in Figure 2E for the same values
parameter: half-life (min)
Answers are plain numbers, in min.

Use these answered entries as a reference point.
Cc1[nH]c2c(c(=O)c1-c1ccc(Oc3ccc(F)cc3)cc1)CCCC2 | 39.2
Cc1[nH]c2c(c(=O)c1-c1ccc(Oc3cccc(OC(F)(F)F)c3)cc1)CCCC2 | 25.9
CCC1CCc2c([nH]c(C)c(-c3ccc(Oc4ccc(OC(F)(F)F)cc4)cc3)c2=O)C1 (centres unmarked) | 63.3
Cc1[nH]c2c(c(=O)c1-c1ccc(Oc3cccc(F)c3)cc1)CCCC2 | 17.4
Cc1[nH]c2c(c(=O)c1-c1ccc(Oc3ccc(Cl)cc3)cc1)CCCC2 | 68.5
Cc1[nH]c2c(c(=O)c1-c1ccc(Oc3ccc(C(F)(F)F)cc3)cc1)CCCC2 | 127
Cc1[nH]c2c(c(=O)c1-c1ccc(Oc3cc(Cl)nc(Cl)c3)cc1)CCCC2 | 24.9

Asked: Look up half-life: Cc1[nH]c2c(c(=O)c1-c1ccc(Oc3cccc(C(F)(F)F)c3)cc1)CCCC2
Given back: 30.1

---

# Tested on: P-glycoprotein (P-gp, MDR1)
# procedure.details: in vitro
# experimental.conditions: dog, MDCK-MDR1
parameter: efflux ratio

Asked: What reported efflux ratio corresponds to Cc1[nH]c2c(c(=O)c1-c1ccc(Oc3ccc(OC(F)(F)F)cc3)cc1)CCCC2 on P-glycoprotein (P-gp, MDR1)?
Given back: < 1.5

---

# Tested on: P-glycoprotein (P-gp, MDR1)
# procedure.details: in vitro
# experimental.conditions: dog, MDCK-MDR1
parameter: Papp

Asked: What reported Papp corresponds to Cc1[nH]c2c(c(=O)c1-c1ccc(Oc3ccc(OC(F)(F)F)cc3)cc1)CCCC2 [JAG21] on P-glycoprotein (P-gp, MDR1)?
Given back: > 10 ×10⁻⁶ cm/s

---

# procedure.details: Kinetic solubility in PBS pH 7.4 (Chem Partners)
# experimental.conditions: PBS, pH 7.4, aqueous buffer, kinetic from dmso stock
parameter: solubility kinetic (µM)
Answers are plain numbers, in µM.

Batch request: solubility kinetic for each of the following compounds.
1. CCC1CCc2c([nH]c(C)c(-c3ccc(Oc4ccc(OC(F)(F)F)cc4)cc3)c2=O)C1 (stereo not shown)
2. Cc1[nH]c2c(c(=O)c1-c1ccc(Oc3ccc(F)cc3)cc1)CCCC2
3. Cc1[nH]c2c(c(=O)c1-c1ccc(Oc3cccc(C(F)(F)F)c3)cc1)CCCC2
4. Cc1[nH]c2c(c(=O)c1-c1ccc(Oc3ccc(C(F)(F)F)cc3)cc1)CCCC2
5. Cc1[nH]c2c(c(=O)c1-c1ccc(Oc3ccc(Cl)c(Cl)c3)cc1)CCCC2
6. O=c1c2c([nH]c(CO)c1-c1ccc(Oc3ccc(OC(F)(F)F)cc3)cc1)CCCC2
7. Cc1[nH]c2c(c(=O)c1-c1ccc(Oc3ccc(OC(F)(F)F)cc3)cc1)CCC(C)C2 (stereo not shown)

Given back:
0.16
2.38
2.19
0.45
0.68
4.05
0.03
